TEST_DESCRIPTION: chemical genetic growth profiling, strain panel (AID 1159580);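 note: tested at 20 µM; growth read once vehicle control cultures reached saturation at 30 °C; 1 = growth at the plate median or of vehicle wells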
CONDITION_DETAILS: S. cerevisiae deletion strains, growth OD, locus YPL256C, strain CLN2, stronger effect = lower value
The whole screen tested about 5,500 compounds, of which about 2,000 (36%) were called active. Inconclusive results (about 18%) are left out. This is one part of the list.
PROPERTY_MEASURED: normalized growth
Format: numeric value only, no unit, no commentary.

Some solved cases for reference:
MOLECULE	RECORDED_MEASUREMENT
NCC(O)CC(=O)O (centres undefined)	1.01
CC(=O)O[C@@H]1CC2C(C)(CC[C@H](O)C2(C)C)C2CC[C@]3(C)C(=CC(=O)O[C@H]3c3ccoc3)C21C (some centres undefined)	0.991
C[C@@H]1CC[C@@]23CCC4(C)[C@@](C=CC5[C@@]6(C)CCC(=O)C(C)(C)C6CC[C@]54C)(OC2=O)C3[C@H]1C (some centres undefined)	0.987

Query (molecule): CCCCCC(O)C1C(=O)OC(C)C(O)/C=C/C=C/C=C/C=C/C=C(\C)C(O)CC(O)CC(O)CC(O)CC(O)CC(O)CC1O (centres undefined) ; field requested: normalized growth
0.975

====

normalized growth values for the molecules below.
TEST_DESCRIPTION: chemical genetic growth profiling, strain panel (AID 1159580)
CONDITION_DETAILS: S. cerevisiae deletion strains, growth OD, locus YER110C, stronger effect = lower value
Screen size: about 5,500 compounds; about 2,000 (36%) were called active. Not shown: some 18% with an inconclusive outcome. The list shows a part of the results.

Examples with answers:
MOLECULE	normalized growth
COC(=O)CC1C(C)(C)C(OC(C)=O)[C@@H]2[C@@H](OC(C)=O)[C@]34O[C@@]2(O)[C@]1(C)C3CC[C@]1(C)C4=CC(=O)O[C@H]1c1ccoc1 (stereo partly specified)	0.998 (inactive)
C[C@H]1O[C@@H](O[C@H]2[C@@H](O)C[C@H](O[C@H]3[C@@H](O)C[C@H](O[C@H]4CC[C@]5(C)C6CC[C@]7(C)[C@@H](C8=CC(=O)OC8)CC[C@]7(O)C6CC[C@@H]5C4)O[C@@H]3C)O[C@@H]2C)C[C@H](O)[C@@H]1O (stereo partly specified)	0.989 (inactive)
COc1nc(NC(C)C)nc(NC(C)C)n1	1.02 (inactive)

Bench note: what normalized growth did Cc1ccccc1N1C(=O)c2cc(S(N)(=O)=O)c(Cl)cc2NC1C (stereo unspecified) show?
0.976 (inactive)

Dear colleague, I am looking for the recorded normalized growth of the following molecule: C[C@@H]1O[C@@H](O[C@H]2CC[C@]3(C=O)C4CC[C@]5(C)[C@@H](C6=CC(=O)OC6)CC[C@]5(O)C4CC[C@]3(O)C2)[C@H](O)[C@H](O)[C@H]1O (stereo partly specified)
0.985 (inactive)

# normalized growth lookup, item CC1CCCC(C)N1NC(=O)c1ccc(Cl)c(S(N)(=O)=O)c1 (stereo unspecified)
0.983 (inactive)

====

TEST_DESCRIPTION: chemical genetic growth profiling, strain panel (AID 1159580)
CONDITION_DETAILS: S. cerevisiae deletion strains, growth OD, locus YDR297W, strain sur2
Hit rate of the full screen: of about 5,500 compounds, about 2,000 (36%) were called active. Roughly 18% stayed inconclusive and do not appear here. No stated cut-off is given here; in the data, active means normalized growth mostly below about 0.91 (no sharp cut-off); inconclusive means no clear call, values can overlap the other calls; inactive means mostly above about 0.92. This is one part of the list.
Entry note: the call must match one of Y (active), N (inactive)

COMPOUND	CLASS_ASSIGNMENT
C/C=C(\C)C(=O)O[C@@H]1c2c(ccc3ccc(=O)oc23)OC(C)(C)[C@@H]1OC(C)=O	N

Tell me the assay call for NC[C@H]1O[C@H](OC2[C@@H](N)C[C@@H](N)[C@H](O[C@H]3O[C@H](CO)[C@@H](O)[C@H](N)[C@H]3O)[C@H]2O)[C@H](O)[C@@H](O)[C@@H]1O (stereo partly specified) please.
N

Per the assay record, what outcome was assigned to CC(=O)N1CCN(c2ccc(OCC3CO[C@](Cn4ccnc4)(c4ccc(Cl)cc4Cl)O3)cc2)CC1 (stereo partly specified) ?
Y

Give the logged outcome of this assay for the following compound: Oc1ccc2c3c1OC1[C@@H](O)CC[C@@]4(O)[C@@H](C2)N(CC2CCC2)CC[C@]314 (stereo partly specified)
N

Recorded test outcome, item O=C(Oc1ccccc1C(=O)O)c1ccccc1O
N

Could you kindly confirm the outcome this assay logged for NC(=O)c1ccc([N+](=O)[O-])cc1Cl ?
N

====

normalized growth values for the molecules below.
TEST_DESCRIPTION: chemical genetic growth profiling, strain panel (AID 1159580)
CONDITION_DETAILS: S. cerevisiae deletion strains, growth OD, locus YMR231W, strain pep5, stronger effect = lower value
The campaign covered roughly 5,500 compounds. About 2,000 (36%) were called active. Roughly 18% stayed inconclusive and do not appear here. Some of the results follow.
No unit in the answer, only the number.

# query: normalized growth of entry C[N+]1(C)C[C@H](O)[C@H](C(=O)[O-])C1
1.01

# input molecule: Oc1ccc([C@H]2Oc3cc(O)cc(O)c3C[C@H]2O)cc1 ; wanted: its normalized growth
0.976

Consider the molecule shown here: CC1(C)S[C@@H]2[C@H](NC(=O)[C@@H](N)c3ccc(O)cc3)C(=O)N2[C@H]1C(=O)O What is its recorded normalized growth?
1

====

TEST_DESCRIPTION: chemical genetic growth profiling, strain panel (AID 1159580)
CONDITION_DETAILS: S. cerevisiae deletion strains, growth OD, locus YHR027C, strain rpn1, stronger effect = lower value
In all, about 5,500 compounds went through this assay and about 2,000 (36%) were called active. About 18% were inconclusive and are not listed. Some of the results follow.
Parameter normalized growth: see the listing below.
I'd appreciate a reply containing only the number, no unit.

Study these solved cases before continuing.
MOLECULE	normalized growth
NCCCC(O)(P(=O)(O)O)P(=O)(O)O	0.983
CC(=O)OCC(=O)[C@@]1(O)CCC2C3C[C@H](C)C4=CC(=O)C=CC4(C)C3[C@@H](O)CC21C (stereo partly specified)	1.01
CC(=O)Oc1ccccc1C(=O)Oc1ccccc1C(=O)O	0.985
C=CCSSSCC=C	1

Dear colleague, I am looking for the recorded normalized growth of the following molecule: Cc1c(OCC(F)(F)F)ccnc1CS(=O)c1nc2ccccc2[nH]1 (stereo unspecified)
1.01

// lookup normalized growth for Cc1ccc(-c2nc3ccc(C)cn3c2CC(=O)N(C)C)cc1
0.981

====

TEST_DESCRIPTION: chemical genetic growth profiling, strain panel (AID 1159580);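 note: tested at 20 µM; growth read once vehicle control cultures reached saturation at 30 °C; 1 = growth at the plate median or of vehicle wells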
CONDITION_DETAILS: S. cerevisiae deletion strains, growth OD, locus YDR318W, strain mcm21, stronger effect = lower value
About 2,000 (36%) of roughly 5,500 compounds were called active. Not shown: some 18% with an inconclusive outcome. This is one part of the list.
PROPERTY_MEASURED: normalized growth
Keep it simple and answer with nothing but the number.

Some molecules with known normalized growth results, for comparison:
SUBSTANCE_SMILES	normalized growth
NCCCN	1.01
NC(N)=Nc1ccc(Cl)cc1	0.997

Which normalized growth reading was recorded for the molecule O=C(Oc1ccccc1C(=O)O)c1ccccc1O ?
1

====

TEST_DESCRIPTION: chemical genetic growth profiling, strain panel (AID 1159580);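 note: tested at 20 µM; growth read once vehicle control cultures reached saturation at 30 °C; 1 = growth at the plate median or of vehicle wells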
CONDITION_DETAILS: S. cerevisiae deletion strains, growth OD, locus YBR135W, strain CKS1, stronger effect = lower value
Among all 5,500 compounds or so, about 2,000 (36%) were called active. Roughly 18% stayed inconclusive and do not appear here. Some of the results follow.
The following compounds are listed with their measured normalized growth values.
When you answer, write just the number.

COMPOUND	normalized growth
N/C(=N/OC(=O)Nc1cccc(C(F)(F)F)c1)c1ccc(OC(F)(F)F)cc1	0.979
C/C(=N/NC(N)=S)c1csc(-c2ccccc2)n1	0.948

So what does the record say about normalized growth for COC(=O)/C=C1/OC(c2ccc(OC)cc2)=CC1=O ?
0.428

GET /values?readout=normalized growth&item= O=S(=O)(Nc1ccccc1Sc1c(Cl)cncc1Cl)c1ccc(Cl)cc1
0.985

====

TEST_DESCRIPTION: chemical genetic growth profiling, strain panel (AID 1159580);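 note: tested at 20 µM; growth read once vehicle control cultures reached saturation at 30 °C; 1 = growth at the plate median or of vehicle wells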
CONDITION_DETAILS: S. cerevisiae deletion strains, growth OD, locus YNL071W, strain lat1, stronger effect = lower value
Hit rate of the full screen: of about 5,500 compounds, about 2,000 (36%) were called active. Inconclusive results (about 18%) are left out. This is one part of the list.
Property: normalized growth; scope: individual molecules
Returns: the value as a bare number; no unit string appended.

MOLECULE	RECORDED_MEASUREMENT
COC1=CC(=O)C=C(OC)C1=O	0.989

normalized growth for COc1ccccc1N1CCN(CCCNc2cc(=O)n(C)c(=O)n2C)CC1 ?
1.02

For CC(=O)OCC(=O)[C@@]1(O)CCC2C3C[C@H](C)C4=CC(=O)C=CC4(C)C3[C@@H](O)CC21C (stereo partly drawn) , what is its reported normalized growth?
1.01
